- Test system: PfAP2-EXP AP2 domain (GST-tagged)
- TEST METHOD NOTES: gcPBM binding intensity (ln(normalized median fluorescence intensity)); higher = stronger DNA binding
The full ranking holds about 25,000 sequences; the median of “ln(normalized median fluorescence intensity)” is about 8.6, and the highest 2% start at about 10. The entries come from a sample that favours the highest values as a whole.
MEASURE: gcPBM binding intensity (ln)
Would you mind answering with just the numeric figure?

Answered cases to consult:
1. ATATATATATATATATGTACATATTTTAATAATTAA [XGTACX_site8549] :: 10.2
2. AAAAAAAACGGACACACACACATAAATATATATAAA [CACACA_site4260] :: 9.02
3. GTATATAATTATATATGTACTAAATAAATATTTTTA [XGTACX_site6062] :: 8.29
4. AAATAAATAATTTAATGTACATATATAATATATATA [XGTACX_site1831] :: 8.5
5. TAATTATTTTCGGTACGTACTAATGTATATATAATT [XGTACX_site3895] :: 8.67
6. TTAAATATAATATTATGTACTAAATATTTTTTTATT [XGTACX_site6121] :: 8.09
7. ATATATATATATATATGTACATAAATATAAATTTAA [XGTACX_site8715] :: 10.2
8. ATATATATATATATATGTACTAATTAATATTTCGAG [XGTACX_site580] :: 10.2

stdin: Return reported gcPBM binding intensity (ln); argument: TATTAATTTTTATTATGTACATAAATAATTTATATT [XGTACX_site5456]
stdout: 8.39

---

- Tested on: PfAP2-EXP AP2 domain (GST-tagged)
- TEST METHOD NOTES: gcPBM binding intensity (ln(normalized median fluorescence intensity)); higher = stronger DNA binding
In all, about 25,000 sequences were measured (“ln(normalized median fluorescence intensity)”: median about 8.6, highest 2% from about 10 on). This is one part of a sample in which the highest values are shown more often than they occur.
gcPBM binding intensity (ln) below 9 gives Not met; gcPBM binding intensity (ln) at or above it gives Met.

Example entries begin here.
1. AAAAAAAAAAAAAATACACACACATATATATATATA [CACACA_site8698] :: Met
2. ATTATATAGAATTGTACATGCGAATTGTATAACGAT [TGCATGCA_site125] :: Met
3. AAAAAAAAAAAATACACACACACATATATATATATA [CACACA_site731] :: Met

Please examine the following record next.
stdin: Please check the record `TGCATACTTTTGTAAGTGCATAAAATCGTACCATGC` and state if its gcPBM binding intensity (ln) is at or above 9.
stdout: Not met

---

Recorded measurements of gcPBM binding intensity (ln), one per entry
- System: PfAP2-EXP AP2 domain (GST-tagged)
- TEST METHOD NOTES: gcPBM binding intensity (ln(normalized median fluorescence intensity)); higher = stronger DNA binding
Over roughly 25,000 sequences, “ln(normalized median fluorescence intensity)” has its median near 8.6; the highest 2% begin near 10. The entries come from a sample that favours the highest values as a whole.
// response body must contain only the number

1. TATTGTTATTAAAAATGTACATATAAATTTCTTATT [XGTACX_site1409] :: 8.32
2. AAAATATATACAATATGTACATATATATATATATAT [XGTACX_site1898] :: 9.96
3. TGTAATAAATAGTACACACACACATATATATATATT [CACACA_site1388] :: 8.73
4. TTCTTCTGTTTTATTACACACCATTTTGTGTATACA [CACACA_site7059] :: 8.96
5. AAAAAATTATAAAAGTGTACATATATATATATATAT [XGTACX_site154] :: 10
6. TAAAAAAAAATAAAAAGTACATATATATATATATAT [XGTACX_site1155] :: 10.3

stdin: Please look up its gcPBM binding intensity (ln): TACTGATCCACATTTATACACACCTCGGTTTGTAGA [CACACA_site417]
stdout: 8.56

stdin: And then ATAAAATAAAATAAAAGTACATAAATATATATATAT [XGTACX_site6110] , what is it?
stdout: 9.83

stdin: Quick one: ATATATATATATATATGTACACACATCAATCATATT [XGTACX_site4005]
stdout: 10.2

stdin: Proceed to ATATATATATATATATGTACATACATACAATCATAT [XGTACX_site6410]
stdout: 10.3

stdin: Param item: TTTTTTTTTTTGGTTACACACATTTGTATATTCTCA [CACACA_site134]
stdout: 8.69

stdin: Same question for AATAAATAAATAAGTACACACATATATATATATATA [CACACA_site284] please.
stdout: 10.2

stdin: Repeat with TATTTGTTGTGAGTCACACATATATATATATATATA [CACACA_site4240]
stdout: 10.3

stdin: Please answer likewise for AATAAATAAATAAGTACACACATATAAATATAAATA [CACACA_site6271]
stdout: 8.69

stdin: Same again, this time with TAAAGTGTAAAATTCACACACATATATATATATATA [CACACA_site4883]
stdout: 10.1

stdin: Same question, TATAGGTATATATTATGTACTTATAATTATATAGAT [XGTACX_site1912] this time
stdout: 8.52

stdin: Also need TACATAAAATATATCACACATATAATATATATATAT [CACACA_site5834] , thanks.
stdout: 9.54

stdin: Same for TTTGTAACTTCTTTCACACATATATATATATATATA [CACACA_site5603]
stdout: 10.3

stdin: Now the sequence AAATATATATATATATGTACACACACACATATAAAT [XGTACX_site847]
stdout: 8.5

stdin: Now give it for TGTATATTTGTTGTTACACACATATATTTTTTTTTT [CACACA_site128] too.
stdout: 8.53
